Field: half-life. Provide a value for each of the compounds that follow.
Assay: Pharmacokinetic screening in male Wistar rats
Settings: in vivo, 3 mg/kg, rat, 3.0 mpk po, read-out: Oral PK T½ (converted)
Experimental: In this example, the PK profile of several PPARδ agonists disclosed herein in male CD-1 mice or Wistar rats was determined by the methods disclosed in Boxenbaum H. (1980) Interspecies variation in liver weight, hepatic blood flow and antipyrine intrinsic clearance in extrapolation of Benzodiazepines and phenytoin. J. Pharmacokinet Biopharm 8: 165-176. Similar methods can be used to analyze other compounds provided herein. […]
Numbers only here, please. The scale is h.

Query: half-life; subject: `C[C@H](CCCOc1ccccc1Cn1c(C(F)(F)F)cnc1-c1ccc(C#N)cc1)CC(=O)O`
10.3

Query: half-life; subject: `C[C@H](CCCOc1ccccc1Cn1c(Cl)cnc1-c1ccc(C(F)(F)F)cc1)CC(=O)O`
4.1

Just for reference, patent US11358954B2 is where these values come from.
